Assay: Selectivity index, ratio of IC50 for human KB cells to IC50 for chloroquine-sensitive Plasmodium falciparum 3D7
Format: toxicity, cell-based
Details: read-out: Ratio IC50
Values of selectivity ratio greater than or equal to 3 map to 1 (yes); values below map to 0 (no).

* N#Cc1c(-c2ccc(OC(F)(F)F)cc2)[n+]([O-])c2ccc(Cl)cc2[n+]1[O-] | 1 (yes)
* COc1ccc2c(c1)[n+]([O-])c(C#N)c(-c1ccc(OC(F)(F)F)cc1)[n+]2[O-] | 1 (yes)
* N#Cc1c(-c2ccc(OC(F)(F)F)cc2)[n+]([O-])c2ccc(C(F)(F)F)cc2[n+]1[O-] | 1 (yes)
* N#Cc1c(-c2ccc(OC(F)(F)F)cc2)[n+]([O-])c2ccc(F)cc2[n+]1[O-] | 0 (no)
* N#Cc1c(-c2ccc(OC(F)(F)F)cc2)[n+]([O-])c2ccccc2[n+]1[O-] | 0 (no)
* N#Cc1c(-c2ccc(Cl)cc2)[n+]([O-])c2ccccc2[n+]1[O-] | 1 (yes)
